Where do these numbers come from? They come from patent US12624034B2.

TARGET DESC: AKT2 (Homo sapiens, UniProt P31751)
Construct: expressed in transfected cells; host or cells: HEK293
Sequence (P31751 whole entry): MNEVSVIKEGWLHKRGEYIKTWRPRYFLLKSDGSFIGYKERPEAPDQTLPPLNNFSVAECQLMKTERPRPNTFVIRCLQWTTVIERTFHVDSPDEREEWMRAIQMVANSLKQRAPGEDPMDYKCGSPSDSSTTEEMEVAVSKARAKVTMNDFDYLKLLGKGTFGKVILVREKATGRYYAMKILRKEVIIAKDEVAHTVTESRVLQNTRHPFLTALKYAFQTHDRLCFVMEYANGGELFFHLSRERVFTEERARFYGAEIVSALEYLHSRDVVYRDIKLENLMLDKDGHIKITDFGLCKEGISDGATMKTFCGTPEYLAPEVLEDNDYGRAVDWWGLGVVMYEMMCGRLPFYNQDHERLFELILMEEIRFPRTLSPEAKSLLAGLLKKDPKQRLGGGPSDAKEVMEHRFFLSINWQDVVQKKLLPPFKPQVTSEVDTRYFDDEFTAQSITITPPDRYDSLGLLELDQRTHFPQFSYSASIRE
TEST SUMMARY: Live cell AKT2 target engagement by NanoBRET competitive probe displacement in HEK293 cells
Format: binding
TEST CONDITIONS: NanoBRET competitive probe displacement, live HEK293 cells, 2 h at 37° C.; read-out: AKT2 IC50
Protocol: Determining live cell AKT1 E17K, AKT1 WT, and AKT2 target engagement by NanoBRET competitive probe displacement. […] Briefly, HEK293 cells were transfected with plasmids encoding kinase-NanoLuciferase fusion proteins overnight. […] After incubation for 2 h at 37° C., luciferase substrate and extracellular luciferase inhibitor were added to all wells, and luminescent intensity at 460 nm and 600 nm were measured on a multimode plate-reader. […]
ASSAY ENDPOINT: IC50 (µM)

Consider the following illustrative entries.
{"COMPOUND": "Nc1ncccc1-c1nc2ccc(-n3nccn3)nc2n1-c1ccc2c(c1)CC(F)[C@@H]2NC1CCN(C(=O)C2CC2)CC1 (single isomer, unassigned) [Compound 533]", "TARGET DESC": "AKT2 (Homo sapiens, UniProt P31751)", "IC50 [µM]": 7.23}
{"COMPOUND": "Cc1ccc(C(=O)N[C@H]2CCc3cc(-n4c(-c5cccnc5N)nc5ccc(-n6cnc(C(F)F)n6)nc54)ccc32)cn1 [Compound 430]", "TARGET DESC": "AKT2 (Homo sapiens, UniProt P31751)", "IC50 [µM]": 2.49}

(I) COc1cc(-c2ccc3nc(-c4cccnc4N)n(-c4ccc5c(c4)CC(F)[C@@H]5NC4CCN(C(=O)C5CC5)CC4)c3n2)ccn1 (stereo partly shown) [Compound 543]
(II) Cn1ccc(=O)n1-c1ccn(-c2ccc3nc(-c4cccnc4N)n(-c4ccc5c(c4)CC[C@@H]5NC4CCN(C(=O)C5CC5)CC4)c3n2)n1 [Compound 573]
(III) Nc1ncccc1-c1nc2ccc(-n3cccn3)nc2n1-c1ccc2c(c1)CC[C@@H]2NC1CC2(C1)CN(c1ccccn1)C2 [Compound 448]
(IV) COc1cc2c(cn1)CCC2N[C@H]1CCc2cc(-n3c(-c4cccnc4N)nc4ccc(-n5cccn5)nc43)ccc21 (stereo partly shown) [Compound 510]
(V) Cc1ccc(C(=O)N[C@H]2CCc3cc(-n4c(-c5cccnc5N)nc5ccc(-n6cnc(C7CC7)n6)nc54)ccc32)cn1 [Compound 419]
Endpoint returns the given compounds ordered by ascending IC50. Write the labels, ordered according to the request. IV, V, I, III, II
(IV: 0.262 µM, V: 0.54 µM, I: 1.21 µM, III: 1.76 µM, II: 5.64 µM)

(P) COC1CCN(c2ccn(-c3ccc4nc(-c5cccnc5N)n(-c5ccc6c(c5)CC(F)[C@@H]6NC5CCN(C(=O)C6CC6)CC5)c4n3)n2)CC1 (stereo partly shown) [Compound 546]
(Q) COCc1ccn(-c2ccc3nc(-c4cccnc4N)n(-c4ccc5c(c4)CC[C@@H]5NC4CCN(C(=O)C5CC5)CC4)c3n2)n1 [Compound 590]
Input pair: P , Q . Output: entry with lower IC50. Output the label that corresponds to your choice. P

(A) Nc1ncccc1-c1nc2ccc(-n3cccn3)nc2n1-c1ccc2c(c1)CC[C@@H]2NC1CCc2ccncc21 (single isomer, unassigned) [Example 495]
(B) C#Cc1cc(-n2nccn2)nc2c1nc(-c1cccnc1N)n2-c1ccc2c(c1)CC[C@@H]2NC(=O)c1ccc(C(F)F)nc1 [Compound 583]
(C) Nc1ncccc1-c1nc2ccc(-n3cccn3)nc2n1-c1ccc2c(c1)CC[C@@H]2NC1CCCc2ccncc21 (stereo partly shown) [Compound 502]
(D) Nc1ncccc1-c1nc2ccc(C#CC3CC3)nc2n1-c1ccc2c(c1)CC[C@@H]2NC(=O)c1ccc(C(F)F)nc1 [Compound 406]
Endpoint returns the given compounds ordered by ascending IC50. Write the labels, ordered according to the request. A, D, C, B
